target: human LXRβ (Homo sapiens); assay: Assay for Transcriptional Activity of LXRβ (GAL4-hLXRβ LBD luciferase reporter, transient transfection); conditions: increase of transcriptional activity of LXRβ; HEK293 cells transfected with pFA-hLXRβ/GAL4 and pUAS; 24 hours; average of three independent tests
QUANTITY: pEC50
The meaning of pEC50 here: minus log10 of the concentration in molar units.

Some entries whose results are on file:
COMPOUND: COc1ncc(-c2cccc(C3CC(C(F)(F)C(F)(F)F)=NN3c3ccc(F)cc3F)c2)cc1CO (stereo not shown)
pEC50: 5.58

COMPOUND: OC(C1=NN(c2ccccc2Cl)C(c2ccc(-c3ccc(C(F)(F)F)nc3)cc2)C1)(C(F)(F)F)C(F)(F)F (stereo not shown)
pEC50: 5.65

COMPOUND: CSc1cccc(-c2ccc(C3CC(C(O)(C(F)(F)F)C(F)(F)F)=NN3c3ccccc3Cl)s2)c1 (stereo not shown)
pEC50: 6.71

COMPOUND: CS(=O)(=O)c1ccc(-c2cccc(C3CC(C(F)(F)C(F)(F)F)=NN3c3ccc(F)cc3F)c2)cn1 (stereo not shown)
pEC50: 6.46

COMPOUND: CC(C)(C)OC(=O)N1CC=C(c2cccc(C3CC(C(O)(C(F)(F)F)C(F)(F)F)=NN3c3ccccc3Cl)c2)CC1 (stereo not shown)
pEC50: 7.12

COMPOUND: CN(CCO)S(=O)(=O)c1ccc(-c2ccc(C3CC(C(O)(C(F)(F)F)C(F)(F)F)=NN3c3ccc(F)cc3F)cc2)cc1 (stereo not shown)
pEC50: 6.77

Challenge: # get_value(readout='pEC50', item= COc1ccc(-c2ccc(C3CC(C(O)(C(F)(F)F)C(F)(F)F)=NN3c3ccccc3Cl)c(F)c2)cn1 (stereo not shown) )
Response given: 6.21

====

Overview of recorded pEC50 for various molecules
Target: human LXRβ (Homo sapiens)
Sequence (P55055 222-460 limits assumed): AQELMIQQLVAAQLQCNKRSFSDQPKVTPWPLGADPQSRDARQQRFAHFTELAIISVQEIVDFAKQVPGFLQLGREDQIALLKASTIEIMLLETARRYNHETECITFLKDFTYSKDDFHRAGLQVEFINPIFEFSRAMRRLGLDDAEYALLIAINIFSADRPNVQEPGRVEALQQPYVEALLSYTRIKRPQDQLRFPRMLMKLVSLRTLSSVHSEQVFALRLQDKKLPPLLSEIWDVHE
Assay: Assay for Transcriptional Activity of LXRβ (GAL4-hLXRβ LBD luciferase reporter, transient transfection)
Settings: increase of transcriptional activity of LXRβ; HEK293 cells transfected with pFA-hLXRβ/GAL4 and pUAS; 24 hours; average of three independent tests
From the text: […] The following tables 1 and 2 show the EC50 values of the test compounds measured as in the above. […]
Kindly note that pEC50 refers to -log10 of the concentration in mol/L and answer with the value alone.

The following molecules have reported results that may help.
MOLECULE: CS(=O)(=O)N1CCCN(c2ccc(C3CC(C(O)(C(F)(F)F)C(F)(F)F)=NN3c3ccc(F)cc3F)cc2)CC1 (stereo not shown) [Example 410]
MEASUREMENT: 6.81
--
MOLECULE: CC(C)S(=O)(=O)N1CCCN(c2ccc(C3CC(C(O)(C(F)(F)F)C(F)(F)F)=NN3c3ccccc3Cl)cc2)CC1 (stereo not shown) [Example 324]
MEASUREMENT: 5.43
--
MOLECULE: OC(C1=NN(c2ccccc2Cl)C(c2ccc(-c3cccnc3)cc2)C1)(C(F)(F)F)C(F)(F)F (stereo not shown) [Example 277]
MEASUREMENT: 6.44

Next molecule, pEC50 to be filled in.
Challenge: Recorded pEC50 for COc1ccc(-c2cccc(C3CC(C(F)(F)C(F)(F)F)=NN3c3ccccc3Cl)c2)cc1OC (stereo not shown) [Example 112] , please?
Response given: 5.07

====

molecular target: human LXRβ (Homo sapiens); construct: expressed in transfected cells; host or cells: HEK293 cells (ATCC CRL-1573), transient transfection with pFA-hLXRβ/GAL4 and pUAS; assay: Assay for Transcriptional Activity of LXRβ (GAL4-hLXRβ LBD luciferase reporter, transient transfection); format: cell-based; conditions: fold value in comparison with the control (DMSO-treated group); HEK293 cells transfected with pFA-hLXRβ/GAL4 and pUAS; 24 hours
Please use condition met for Emax under 80 fold and condition not met for everything else, ties included.

COMPOUND: CS(=O)(=O)N1CC=C(c2cccc(C3CC(C(F)(F)C(F)(F)F)=NN3c3ccc(F)cc3F)c2)CC1 (centres unmarked)
QUALITATIVE LABEL: condition met
--
COMPOUND: Cc1cc(F)ncc1-c1ccc(C2CC(C(O)(C(F)(F)F)C(F)(F)F)=NN2c2ccc(F)cc2F)cc1 (centres unmarked)
QUALITATIVE LABEL: condition met
--
COMPOUND: CS(=O)(=O)N1CCCN(c2ccc(C3CC(C(O)(C(F)(F)F)C(F)(F)F)=NN3c3ccc(F)cc3F)cc2)CC1 (centres unmarked)
QUALITATIVE LABEL: condition met
--
COMPOUND: CS(=O)(=O)N1CC=C(c2ccc(F)c(C3CC(C(F)(F)C(F)(F)F)=NN3c3ccc(F)cc3F)c2)CC1 (centres unmarked)
QUALITATIVE LABEL: condition not met
--
COMPOUND: Fc1ccc(N2N=C(C(F)(F)C(F)(F)F)CC2c2cccc(-c3ccc(F)nc3)c2)c(F)c1 (centres unmarked)
QUALITATIVE LABEL: condition met

Challenge: is_below(Emax, 80 fold) for CS(=O)(=O)N1CC=C(c2ccc(C3CC(C(O)(C(F)(F)F)C(F)(F)F)=NN3c3ccc(F)cc3F)cc2)CC1 (centres unmarked) ?
Response given: condition met

Challenge: Can you handle CS(=O)(=O)c1ccc(-c2cncc(C3CC(C(F)(F)C(F)(F)F)=NN3c3ccc(F)cc3F)c2)cc1 (centres unmarked) next?
Response given: condition met

Challenge: Repeat with CC(=O)Nc1cccc(-c2ccc(C3CC(C(O)(C(F)(F)F)C(F)(F)F)=NN3c3ccccc3Cl)cc2)c1 (centres unmarked)
Response given: condition not met

Challenge: For CS(=O)(=O)N1CCN(c2ccc(F)c(C3CC(C(F)(F)C(F)(F)F)=NN3c3ccc(F)cc3F)c2)CC1 (centres unmarked) then?
Response given: condition not met

Challenge: Now consider CS(=O)(=O)c1ccc(-c2cc(C3CC(C(F)(F)C(F)(F)F)=NN3c3ccc(F)cc3F)ccc2F)cc1 (centres unmarked) .
Response given: condition met

Challenge: What about this compound? CS(=O)(=O)N1CCN(c2cccc(C3CC(C(F)(F)C(F)(F)F)=NN3c3ccc(F)cc3F)c2)CC1 (centres unmarked)
Response given: condition met

Challenge: And then Cc1ccc(-c2ccc(C3CC(C(O)(C(F)(F)F)C(F)(F)F)=NN3c3ccccc3Cl)cc2)c(F)c1 (centres unmarked) , what is it?
Response given: condition not met

Challenge: Next: Oc1cccc(-c2ccc(C3CC(C(O)(C(F)(F)F)C(F)(F)F)=NN3c3ccccc3Cl)cc2)c1 (centres unmarked)
Response given: condition met

====

Target: human LXRβ (Homo sapiens)
Sequence (P55055 222-460 limits assumed): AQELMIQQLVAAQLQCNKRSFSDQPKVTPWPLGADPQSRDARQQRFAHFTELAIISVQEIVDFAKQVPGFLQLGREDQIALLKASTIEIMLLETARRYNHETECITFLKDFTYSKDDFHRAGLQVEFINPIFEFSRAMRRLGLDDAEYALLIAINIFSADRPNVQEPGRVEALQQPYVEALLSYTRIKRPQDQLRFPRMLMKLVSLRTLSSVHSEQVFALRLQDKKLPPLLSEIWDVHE
Test: Assay for Transcriptional Activity of LXRβ (GAL4-hLXRβ LBD luciferase reporter, transient transfection)
Conditions: increase of transcriptional activity of LXRβ; HEK293 cells transfected with pFA-hLXRβ/GAL4 and pUAS; 24 hours; average of three independent tests
pEC50: −log10 of the molar value.
We use 6 as the dividing line for pEC50: on or above the line is 1, below is 0.

# count of solved cases: 6
MOLECULE: CS(=O)(=O)N1CCN(c2cc(C3CC(C(F)(F)C(F)(F)F)=NN3c3ccc(F)cc3F)ccn2)CC1 (centres unmarked)
QUALITATIVE LABEL: 0

MOLECULE: Cc1cc(F)ncc1-c1ccc(C2CC(C(O)(C(F)(F)F)C(F)(F)F)=NN2c2ccc(F)cc2F)cc1 (centres unmarked)
QUALITATIVE LABEL: 1

MOLECULE: CS(=O)(=O)c1ccc(-c2cccc(C3CC(C(F)(F)C(F)(F)F)=NN3c3ccc(F)cc3F)c2)cc1C#N (centres unmarked)
QUALITATIVE LABEL: 1

MOLECULE: CC(C)(C)OC(=O)N1CCN(c2ccc(C3CC(C(O)(C(F)(F)F)C(F)(F)F)=NN3c3ccccc3Cl)cn2)CC1 (centres unmarked)
QUALITATIVE LABEL: 0

MOLECULE: CS(=O)(=O)c1ccc(-c2ccc(C3CC(C(O)(C(F)(F)F)C(F)(F)F)=NN3c3ccccc3Cl)cc2)cc1 (centres unmarked)
QUALITATIVE LABEL: 1

MOLECULE: CC(=O)c1cccc(-c2ccc(C3CC(C(O)(C(F)(F)F)C(F)(F)F)=NN3c3ccccc3Cl)cc2F)c1 (centres unmarked)
QUALITATIVE LABEL: 1

Challenge: Is it the case that CS(=O)(=O)c1ccc(-c2cncc(C3CC(C(F)(F)C(F)(F)F)=NN3c3ccc(F)cc3F)c2)cc1 (centres unmarked) has pEC50 reaching or exceeding 6?
Response given: 0

Challenge: Field entry: CC(C)(C)OC(=O)N1CCN(c2ccc(C3CC(C(O)(C(F)(F)F)C(F)(F)F)=NN3c3ccc(F)cc3F)cc2)CC1 (centres unmarked)
Response given: 0

Challenge: Field entry: CS(=O)(=O)N1CC=C(c2ccnc(C3CC(C(F)(F)C(F)(F)F)=NN3c3ccc(F)cc3F)c2)CC1 (centres unmarked)
Response given: 1
